src = PubChem BioAssay (NCI)

tested on: HOP-62 NSCLC; assay: NCI tumour cell line growth inhibition, 48 h
Items are presented alongside their recorded TGI.

Consider the reported TGI for these molecules:
>>> df
                                   molecule  assay_endpoint  measured_result
0  CC(=O)/C=C/c1ccc(N(CCO)Cc2ccc(C(C)(C)C)cc2)cc1             TGI           231 µM
1  CC1(C)CCC[C@@]2(C)C1CC[C@@]1(CO1)[C@@H]2/C=C\C(C=O)CC=O (some centres undefined)             TGI         > 100 µM
2  Nc1cc(N)c2nc(-c3ccccc3)c(NCc3ccc(Cl)c(Cl)c3)nc2c1             TGI          31.9 µM
3  COc1cccc(CCn2c(N)c(C#N)c3ccc([N+](=O)[O-])cc3c2=O)c1             TGI        > 31.6 µM
4  Cc1ccc(O)c(C2=NNC(c3cccc(Cl)c3)C2)c1 (centres undefined)             TGI         > 100 µM

Request the reported TGI associated with O=C(OCc1ccccc1)n1cccc1
> 100 µM

Dear colleague, I am looking for the recorded TGI of the following molecule: Oc1cc(O)c2c(c1)OC(c1ccc(O)c(O)c1)C(O)C2c1c(O)cc(O)c2c1OC(c1ccc(O)c(O)c1)C(O)C2 (centres undefined)
> 100 µM

Look up TGI for this molecule: O=C(CCl)Nc1ccc(Cc2ccc(NC(=O)CCl)cc2)cc1
6.1 µM

====

system: NCI-H23 lung; experiment: NCI tumour cell line growth inhibition, 48 h; in the data active means GI50 below about 0.43 µM; inactive means the rest
Write down one outcome, taken from active, inactive

>>> print(df.to_string())
                                   compound  group_label
0  CCOC(=O)c1cc2c(n1Cc1ccccc1OC)-c1oncc1CCC2     inactive

As a next step, examine the compound that follows.
Returns: the outcome recorded for CCOC(=O)c1cc2c(n1Cc1cc(OC)cc(OC)c1)-c1oncc1CC2 in this assay.
active

====

test system: SK-MEL-5 melanoma; test: NCI tumour cell line growth inhibition, 48 h
The following compounds are shown together with reported GI50 values.

                            smiles_notation  assay_endpoint  measured_result
0  CCS(=O)(=O)N1CCN(c2ccc(Nc3ncc(C(N)=O)c(NC4CC4)n3)cc2)CC1            GI50          3.13 µM
1  CCOC(=O)c1cc2c(n1Cc1ccccc1OC)-c1oncc1CCC2            GI50          2.61 µM
2  CC(=N\O)/C(C)=N/O.CC(=N\O)/C(C)=N/O.[Fe].[NH2-].c1c[nH]cn1            GI50         > 100 µM
3  O=C(c1ccc(Nc2nccc(NCCCCNc3ccnc4cc(Cl)ccc34)n2)cc1)N1CCCCC1            GI50          1.61 µM

API: the following record is the query input.
What does the record list as GI50 for CN(C)C/C=C/C(=O)Nc1cc2c(Nc3cccc(Cl)c3F)ncnc2cc1OCCOC(F)F ?
2.46 µM

====

system: OVCAR-4 ovarian; assay: NCI tumour cell line growth inhibition, 48 h
Parameter GI50: see the listing below.

For orientation, consider the following solved cases.
>>> df
                                   compound  measured_target  measured_result
0  CN(C)C/C=C/C(=O)Nc1cc2c(Nc3cccc(Cl)c3F)ncnc2cc1OCCOC(F)F  OVCAR-4 ovarian           1.5 µM
1  CC1(C)CC[C@]2(CO)CC[C@]3(C)C(=CC[C@@H]4[C@@]5(C)CCNCC(C)(C)[C@@H]5CC[C@]43C)[C@@H]2C1  OVCAR-4 ovarian          7.66 µM
2  CCS(=O)(=O)N1CCN(c2ccc(Nc3ncc(C(N)=O)c(NC4CC4)n3)cc2)CC1  OVCAR-4 ovarian          12.1 µM
3  CCOC(=O)CCSC1=CC(=O)c2nc3ccccc3c3ccnc1c23  OVCAR-4 ovarian          15.2 µM
4  C=CCN1C(=O)[C@]2(SC1=S)[C@H](c1cccc(Cl)c1)CN(C)[C@]21C(=O)NC2C=CC(Cl)=C[C@H]21 (some centres not stated)  OVCAR-4 ovarian          2.13 µM

Which value of GI50 has been reported for C[C@@H](Oc1cc(-c2cnn(C3CCNCC3)c2)cnc1N)c1c(Cl)cc(F)cc1Cl in the records?
2.86 µM

If you can, please state the reported GI50 value of COc1cccc(-c2nn(-c3ccccc3)cc2-c2ccnc(NCCCNS(=O)(=O)c3ccc(C(F)(F)F)cc3)c2)c1 .
4.36 µM

Any idea what its GI50 is? The compound is C=C1C(=O)O[C@H]2[C@H]1CC/C(COC(=O)/C=C\C(=O)NCc1ccc(Cn3c(=O)sn(-c4ccc(Cl)cc4)c3=O)cc1)=C\CC[C@@]1(C)O[C@@H]21
0.685 µM

Fill blank: measured GI50 of the compound O=c1[nH]c2ccccc2n1C1CCN(CCOc2ccccc2)CC1 is ____.
5.86 µM

For the compound Cc1cn2c(/C=C3\C(=O)N(C)c4ccc(Cl)cc43)c(C)nc2s1 , what GI50 is on record?
6.18 µM

Value lookup for GI50; key = C/C=C(\C)C(=O)O[C@@H]1C=CC(=O)O[C@H]1CNC(=O)[C@H](C)O
19 µM

# get_value(readout='GI50', item= COC(=O)[C@H](CCCCNC(=O)OCc1ccccc1)NC(=O)[C@@H](NC(=O)Nc1cc(C(F)(F)F)cc(C(F)(F)F)c1)C(C)C )
> 10 µM

====

system: SW-620 colon; assay: NCI tumour cell line growth inhibition, 48 h
Assay endpoint: TGI

Record excerpt, results attached:
>>> print(df.to_string())
                                   compound  assay_endpoint  measured_result
0  COc1cccc(/C=C/C(=O)N2CC(CCl)c3c2cc(N)c2ccccc32)c1 (stereo not drawn)             TGI         > 100 µM
1  CC(=O)OCC1OC(n2c(O)c(N=NC(N)=S)c3ccc([N+](=O)[O-])cc32)C(OC(C)=O)C1OC(C)=O (stereo not drawn)             TGI         > 100 µM
2  COc1cc2c(cc1OC)[C@H]1C(COC(=O)Nc3ccccc3)CN1CC2 (stereo partly drawn)             TGI         > 100 µM
3  O=C(Nc1cc2cc([N+](=O)[O-])ccc2oc1=O)c1cccs1             TGI         > 100 µM
4  C=CCN1C(=O)CS/C1=N\NC(=O)CSc1nc2ccccc2c(=O)n1CC             TGI         > 100 µM
5  C=CCC1C(=O)CC2(C)C(CC=C)C(=O)CC12C (stereo not drawn)             TGI         > 100 µM
6  OCC1OC(n2cnc3c(NCc4ccccc4O)ncnc32)C(O)C1O (stereo not drawn)             TGI        > 33.9 µM
7  CCOC(=O)c1ccn2c(c1)c(C#N)c1nc3ccccc3nc12             TGI         > 100 µM

Query: TGI; subject: Cc1nn(-c2ccccc2)c2nc(C)n(-c3ccc(Br)cc3)c(=O)c12
> 100 µM

I am curious: what TGI value has been reported for c1ccc(COC[C@H]2C3OCC([C@H](OCc4ccccc4)[C@H]3OCc3ccccc3)N2Cc2ccccc2)cc1 (stereo partly drawn) ?
> 100 µM

Requested read-out: TGI. Entry: CCc1ccccc1NC(=O)C(=O)C(C#N)c1c(Cl)cccc1Cl (stereo not drawn)
> 100 µM

Given N/C(=N/S(=O)(=O)c1cc(C(=O)Nc2ccc(F)cc2)c(Cl)cc1SCc1ccccc1)Nc1ccccc1O , state its recorded TGI.
3.54 µM

Please look up its TGI: N#CC(C#N)=Cn1c(=S)[nH]c2ccc([N+](=O)[O-])cc21
> 100 µM

====

tested on: CAKI-1 renal; assay: NCI tumour cell line growth inhibition, 48 h; in the data active = GI50 below about 0.43 µM; inactive = the rest
Outcome field: choose from 1 (yes) (active), 0 (no) (inactive)

Example entries begin here.
>>> df
                                   compound  group_label
0  Cn1cc(-c2nc(-c3cn(C)c4ncccc34)cs2)c2ccccc21       0 (no)
1  CC[Si](CC)(CC)OC1[C@@H](O[Si](CC)(CC)CC)[C@@H](CNC(=O)NC)O[C@H]1n1cnc2c(NC(=O)Nc3ccccc3)ncnc21 (some centres not stated)       0 (no)
2  OCC1OC(n2cnc3c(NCc4ccccc4O)ncnc32)C(O)C1O (configuration not stated)      1 (yes)
3  O=C(c1ccc(Nc2nccc(NCCCCNc3ccnc4cc(Cl)ccc34)n2)cc1)N1CCCCC1       0 (no)
4  CC(=N\O)/C(C)=N/O.CC(=N\O)/C(C)=N/O.[Fe].[NH2-].c1c[nH]cn1       0 (no)

Record lookup: outcome of this test for C=C1C(=O)O[C@H]2[C@H]1CC/C(COC(=O)/C=C\C(=O)NCc1ccc(Cn3c(=O)sn(-c4ccc(Cl)cc4)c3=O)cc1)=C\CC[C@@]1(C)O[C@@H]21 ?
1 (yes)

Lab log entry: Cc1ccc(NC2=CC(=O)C(=O)c3ccccc32)cc1 — outcome as called in the assay?
0 (no)
